# System: HT29 colon
# experiment: NCI-60 one-dose screen, 48 h
# recordedConditions: 10 µM unless noted
Compounds without any hit were thinned out: in the full panel of roughly 83,000, 20% have a hit. Active and inactive are the calls of the source. How the source made its calls: active means growth percent below 10; inactive means the rest.
// classify into Y (active), N (inactive)

Cn1c(SCC(=O)c2ccc(F)cc2)nc2ccccc2c1=O
N
CC(=O)C1=C(C)NC(NNc2ccccc2)=NC1c1ccc([N+](=O)[O-])cc1 (centres undefined)
N
O=C(Nc1cc(C(F)(F)F)cc(C(F)(F)F)c1)Nc1ccc2oc(=O)ccc2c1
N
COc1ccc(CC(C)=C(c2ccc(OCCN3CCCC3)cc2)c2ccc(OCCN3CCCC3)cc2)cc1
Y

Q) # fetch the recorded call for NS(=O)(=O)c1ccc(CCn2c(-c3ccc(C(=O)O)cc3)nc(-c3ccccc3)c2-c2ccccc2)cc1 here
A) N

Q) # fetch the recorded call for COc1ccc(C2c3[nH]c4ccc(Cl)cc4c3CCN2c2oc(CO)nc2C#N)cc1 (centres undefined) here
A) N

Q) # fetch the recorded call for C/C(=N\NC(=O)Nc1ccccc1)c1nnn(-c2ccc([N+](=O)[O-])cc2)c1C here
A) N

Q) # fetch the recorded call for Cc1ccc2c(n1)C(=O)C(Cl)=C(Nc1ccc(C(=O)OC(C)(C)C)cc1)C2=O here
A) N

Q) # fetch the recorded call for O=C(O)c1ccc(-n2c(=O)n(-c3cccc(C(F)(F)F)c3)c(=O)c3cc(-c4ccc(F)cc4F)ccc32)cc1 here
A) N
